tested on: HCT-116; experiment: NCI tumour cell line growth inhibition, 48 h
Activity calls are given as the source filed them. No stated cut-off is given here; in the data, active = GI50 up to about 1.1 µM and inactive = higher.
parameter.measured: GI50

• CCOC(=O)C(CC#Cc1ccc(C#CCC(NC(C)=O)C(=O)OCC)cc1)NC(C)=O (centres undefined) = > 100 µM (inactive)
• COC(=O)C1=C(C)NC2(C)OC(C)(O)C(C(C)=O)C12C(C)=O (centres undefined) = > 100 µM (inactive)
• O=C1CCNC/C1=C\c1ccccc1 = 17.9 µM (inactive)
• NCCNc1nc(N2CCCC2)c2nc(Cl)c(NCc3ccccc3)nc2n1 = 1.49 µM (inactive)
• CNc1ncnc2c1cnn2Cc1cn(CCCCO)nn1 = > 100 µM (inactive)
• N=C(N)N/N=C\c1c(-c2cccc([N+](=O)[O-])c2)nc2sccn12 = 7.73 µM (inactive)
• CCOc1cc(C2CC(c3ccc(NS(=O)(=O)c4cc([N+](=O)[O-])ccc4C)cc3)=NN2S(=O)(=O)c2cc([N+](=O)[O-])ccc2C)ccc1O (centres undefined) = 36.5 µM (inactive)
• CC1=CC(=O)/C(=C/NC(=S)Nc2ccc(S(N)(=O)=O)cc2)C(=O)O1 = > 100 µM (inactive)
• C[n+]1c2ccccc2c(CNc2ccc(S(=O)(=O)N=C(N)N)cc2)c2ccccc21 = 5.78 µM (inactive)
• CC1CC(Nc2ccc(Br)cc2)N(C(=O)c2ccc(Br)cc2)O1 (centres undefined) = 4.42 µM (inactive)
• COc1cc(C(C)c2cc3c(cc2OCCO)OCO3)cc(OC)c1OC (centres undefined) = 1.38 µM (inactive)
• C/C(CC(=O)Nc1ccc(Cl)c(Cl)c1)=N/NC(=O)C[n+]1ccccc1 = > 100 µM (inactive)
• Cc1cc(O)c2c(c1)C(O)(c1ccc3c(c1O)C(=O)c1c(O)cc(C)cc1C3(O)C1OC(CO)C(O)C(O)C1O)c1cccc(O)c1C2=O (centres undefined) = 11.9 µM (inactive)
• COc1cc2c(cc1OC)C1c3ccccc3CCN1CC2 (centres undefined) = 36.8 µM (inactive)
• COc1cc(/C=N/c2nncs2)ccc1O = > 100 µM (inactive)
• O=S1(=O)OCCOS(=O)(=O)C1I = > 100 µM (inactive)
• CC(C)(C)C(=O)C(c1ccc(-c2cscn2)cc1)c1ccc(-c2cscn2)cc1 = 44 µM (inactive)
• Fc1ccc2c3c([nH]c2c1)CCNC3 = > 100 µM (inactive)
• COC1(c2cccs2)c2ccccc2C(OC)(c2cccs2)c2ccccc21 (centres undefined) = 17.4 µM (inactive)

###

system: U-251; assay: NCI tumour cell line growth inhibition, 48 h
Activity calls are given as the source filed them. Rule as the data show it: active = GI50 up to about 1.1 µM and inactive = higher.
Here the recorded GI50 is given for each entry.
parameter.measured: GI50

* CCOc1ccc2c(c1)c(=O)c1c(NCCN(CC)CC)ccc3nnn2c31 | 19.7 µM (inactive)
* CC(C(=O)[O-])S(=O)(=O)O.CCc1c2cc(OC)c(OC)cc2cc2c3cc(OC)c(OC)cc3cc[n+]12 | 6.27 µM (inactive)
* CC(C)OP(=O)(OC(C)C)/C(Cl)=N/Nc1ccc([N+](=O)[O-])cc1 | > 100 µM (inactive)
* CCOP1(=O)C=C(Sc2ccc([N+](=O)[O-])cc2[N+](=O)[O-])C(C)(C)O1 (stereo unspecified) | 14.9 µM (inactive)
* C/C(=N\NC(N)=S)c1cccs1.OB(O)c1ccccc1 | > 100 µM (inactive)
* N#CCc1nc2c(s1)C(=O)c1ccccc1C2=O | 17.3 µM (inactive)
* Cn1c2ccccc2c(=O)c2c(O)cc3c(c21)C=CC(C)(C)O3 | > 25 µM (inactive)
* C=CCN1CCN([C@H](c2ccc(C(=O)N(CC)CC)cc2)c2cccc(OC)c2)CC1 | > 25 µM (inactive)
* COCC(O)CN1C(N)=NC(O)C1O (stereo unspecified) | > 100 µM (inactive)
* CC(C)(C)c1cc(C(C)(C)C)c(SC2OC(CO)C(O)C(O)C2O)c(O)c1O (stereo unspecified) | 7.43 µM (inactive)
* Cc1ccc(NC(=O)CCc2nnc3s/c(=C\c4cccc([N+](=O)[O-])c4)c(=O)n23)cc1 | 47.9 µM (inactive)
* CC(C)[Si](OC1=C(c2ccccc2)C(NC(=O)/C=C/c2ccc([N+](=O)[O-])cc2)CCC1)(C(C)C)C(C)C (stereo unspecified) | > 100 µM (inactive)
* COC(=O)C1CSC(c2csc(CCN)n2)=N1 (stereo unspecified) | > 100 µM (inactive)
* Cc1ccc2c(C3Cc4ccccc4N3C(=O)/C=C\C(=O)O)c(C)[nH]c2c1 (stereo unspecified) | 44.6 µM (inactive)
* CCc1cccc(CC)c1NC(=O)C(=O)Cc1nc2ccccc2o1 | > 100 µM (inactive)
* COc1ccc(O)c2c(=O)ccccc12 | > 100 µM (inactive)
* COC(=O)C1=C(C)NC2(C)OC(C)(O)C(C(C)=O)C12C(C)=O (stereo unspecified) | 43.7 µM (inactive)
* O=C1C2C(C(=O)N1OS(=O)(=O)c1ccccc1)N(Cc1ccccc1)C(=O)N2Cc1ccccc1 (stereo unspecified) | > 100 µM (inactive)
* NC(=S)NNc1c([N+](=O)[O-])cnn(-c2ccccc2)c1=O | 16.9 µM (inactive)
* C/C(=N\NC(=S)NCc1ccccc1)c1nc2cccnc2[nH]1 | 5.3 µM (inactive)
* OC1(c2ccccc2)CSc2ncnn21 (stereo unspecified) | > 100 µM (inactive)
* NN/C(=N\S(=O)(=O)c1cc(S(=O)(=O)c2ccccc2)cs1)Nc1ccc(Cl)cc1 | 23.5 µM (inactive)
* C[C@@H](CC(=O)OCc1ccccc1)OC1OC(COC(=O)C(C)(C)C)C(OC(=O)C(C)(C)C)C(OC(=O)C(C)(C)C)C1OC(=O)C(C)(C)C (stereo partly specified) | > 100 µM (inactive)
* COc1ccc(-c2nnc3c4ccccc4sn23)cc1 | 23.4 µM (inactive)
* Cn1nc(Cc2ccc(Cl)cc2)n(N)c1=O | > 100 µM (inactive)
* CC1(C)CCc2c(cc3c(c2O)CCC(C)(C)O3)O1 | > 100 µM (inactive)

###

test system: DLD-1; assay: NCI tumour cell line growth inhibition, 48 h
The source made the active and inactive calls. No stated cut-off is given here; in the data, active = GI50 up to about 1.1 µM and inactive = higher.
parameter.measured: GI50

* CC(C)[Si](OCC1CC(C[C@H]2CC(C[C@H]3C[C@@H](CO[Si](C(C)C)(C(C)C)C(C)C)OC(C)(C)O3)OC(C)(C)O2)OC(C)(C)O1)(C(C)C)C(C)C (some centres undefined) | > 100 µM (inactive)
* CCO/S(=N/S(=O)(=O)c1ccccc1)c1ccccc1[N+](=O)[O-] (centres undefined) | > 100 µM (inactive)
* COCC(O)CN1C(N)=NC(O)C1O (centres undefined) | > 100 µM (inactive)
* C[n+]1cccc(NC(=O)c2ccc(NC(=O)C34CCC(C(=O)Nc5ccc(C(=O)Nc6ccc[n+](C)c6)cc5)(CC3)CC4)cc2)c1 | 10.9 µM (inactive)

###

test system: OVCAR-5; experiment: NCI tumour cell line growth inhibition, 48 h
Activity calls are given as the source filed them. Rule as the data show it: active = GI50 up to about 1.1 µM and inactive = higher.
parameter.measured: GI50

* O=C1N2CCN=C2c2ccccc2C1(O)c1ccccc1 (stereo not given) | > 100 µM (inactive)
* CN1OC2OC(=O)OC2[C@H]1[C@H]1O[C@H](c2ccccc2)OC1(C)c1cc(OC(=O)c2ccccc2)ccc1OC(=O)c1ccccc1 (stereo not given in full) | > 50 µM (inactive)
* COc1cc2c(cc1OC)C1c3ccccc3CCN1CC2 (stereo not given) | > 100 µM (inactive)
* c1ccc2sc(SSSc3nc4ccccc4s3)nc2c1 | > 100 µM (inactive)
* C/C=C\C(CC(=O)NCCC1CN(C(=O)c2ccccc2)c2ccccc21)CC(=O)OC (stereo not given) | > 100 µM (inactive)

###

test system: A498; assay: NCI tumour cell line growth inhibition, 48 h
The source made the active and inactive calls. No stated cut-off is given here; in the data, active = GI50 up to about 1.1 µM and inactive = higher.
parameter.measured: GI50

- COC(=O)CN(CC(O)C(NC(C)=O)C(O)C=O)C(=O)OCc1ccccc1 (stereo not drawn): > 100 µM (inactive)
- Cn1nc(Cc2ccc(Cl)cc2)n(N)c1=O: > 100 µM (inactive)
- C[N+](C)(C)CC(=O)N/N=C(/CC(=O)CC(C1=C(O)c2ccccc2OC1)c1ccccc1)C(=O)Nc1cccc(Cl)c1 (stereo not drawn): > 100 µM (inactive)

###

tested on: K562; assay: NCI tumour cell line growth inhibition, 48 h
The source made the active and inactive calls. No stated cut-off is given here; in the data, active = GI50 up to about 1.1 µM and inactive = higher.
Outcome codes: 1 (active), 0 (inactive)

- CC(C)(C)C1CCP(=O)(c2ccccc2)CC1 (stereo unspecified): 0
- CCN(CC)c1ccc(/N=N/c2ccc([N+](=O)[O-])cc2OC(=O)/C=C/c2ccccc2)c(OC(=O)/C=C/c2ccccc2)c1: 0
- CCOP1(=O)C=C(Sc2ccc([N+](=O)[O-])cc2[N+](=O)[O-])C(C)(C)O1 (stereo unspecified): 0
- COc1ccc(N2/C(=N/c3ccccc3)SC(=N/S(=O)(=O)c3ccccc3)/C2=N\S(=O)(=O)c2ccccc2)cc1: 0
- O=C1CSC(c2ccccc2)N1c1ccc(-c2ccc(-n3c(-c4ccccc4)nc4ccccc4c3=O)cc2)cc1 (stereo unspecified): 0
- CC1CC(Nc2ccc(Br)cc2)N(C(=O)c2ccc(Br)cc2)O1 (stereo unspecified): 1
- CC(C)=CC(=O)O[C@@H]1CC(C)(C)CC2C3=CCC4[C@]56CC[C@](O)(OC5)C(C)(C)C6CC[C@@]4(C)C3(C)CC[C@]21C(=O)O (stereo partly specified): 0
- COc1cccc2c(Nc3ccc(S(=O)(=O)N=C(N)N)cc3)c3ccc([N+](=O)[O-])cc3nc12: 0
- COc1cc(C2C(C(=O)Nc3cc(F)c(F)cc3F)=C(C)NC(C)=C2C(=O)Nc2cc(F)c(F)cc2F)ccc1O: 0
- CCN(CC)C1C(=O)NC1C#Cc1ccccc1 (stereo unspecified): 0
- Nc1ccn(C=C=CCO)c(=O)n1: 0
- O=C(c1cc(O)ccc1O)c1ccccc1C(Cl)(Cl)Cl: 0
- CC1CN1c1c(C(=O)/C=C/c2ccccc2)c(-c2ccccc2)nn(C)c1=O (stereo unspecified): 0
- CCN(CC)CCCNc1ccc([N+](=O)[O-])c2nc3ccccc3c(N)c12: 1
- N#CC1C(=O)Nc2sc(C(=O)c3ccc(Br)cc3)c(N)c2C12CCCCC2 (stereo unspecified): 0
- Brc1ccc(C2CC(c3cccc4ccccc34)=Nc3ccccc3S2)cc1 (stereo unspecified): 0
- c1cc2c(cc1NC1=NCCO1)CCC2: 0
- C[C@]12CC[C@H](O)CC1=CC[C@@H]1[C@@H]2CC[C@]2(C)/C(=N/OCCN3CCCC3)CC[C@@H]12: 0
- COC(=O)[C@@H]1c2cc3c(c(O)c2[C@@H](OC)C[C@@]1(C)O)C(=O)c1c(O)cc2c(c1C3=O)OC1O[C@@]2(C)[C@H](O)[C@@H](N(C)C)[C@@H]1O: 1
- O=C1C2Nc3ccccc3SC2C(=O)N1c1ccc(Br)cc1 (stereo unspecified): 0
- CC(=O)O/C(=C(/C#N)C(=O)O)C1C(C(=O)O)C(c2ccccc2[N+](=O)[O-])C=C(c2ccco2)N1c1ccncc1 (stereo unspecified): 0
- Cc1ccc(Cl)c(NC(=O)C(=O)C(C(=O)c2ccncc2)C2OC(=O)c3ccccc32)c1 (stereo unspecified): 0
- C[C@@H](CC(=O)OCc1ccccc1)OC1OC(COC(=O)C(C)(C)C)C(OC(=O)C(C)(C)C)C(OC(=O)C(C)(C)C)C1OC(=O)C(C)(C)C (stereo partly specified): 0
- c1ccc(Cc2nc(Cc3n[nH]c(Cc4ccccc4)n3)n[nH]2)cc1: 0
- COc1ccc(-c2nnc3c4ccccc4sn23)cc1: 0
- CCCCCCCCC[C@@H]1C[C@H](O)[C@H](Cc2ccccc2)N1C(=O)OC(C)(C)C: 0
- O=C(Nc1ccccc1)OCCN=C1c2ccccc2CCc2ccccc21: 0
- CCOC(=O)C1(Cc2ccccc2)CCN(C(=O)c2ccccc2)C2C1C2(Cl)Cl (stereo unspecified): 0
- CC(NNC(=O)c1cc[n+]([BH2-]C#N)cc1)c1ccc(F)cc1 (stereo unspecified): 0
- CC1CCCc2c1c1ccc3c(O)cccc3c1oc2=O (stereo unspecified): 0
- COC(=O)C(CC=O)C(=O)C(=O)Nc1cccc(C(F)(F)F)c1 (stereo unspecified): 0
